- tgt: TBK1 (Homo sapiens (Human))
- procedure-details: Lanthascreen TR-FRET kinase inhibition assay, TBK1
- Assay type: biochemical
- reported-conditions: 20 μM ATP (apparent Km), 8 nM kinase, 2.5 h
- Procedure: Compounds of the invention (synthesised as described below) were tested for activity against the IKKε and TBK-1 enzyme as follows: Inhibitions studies were performed using a time-resolved fluorescence-based Lanthascreen™ assay. Phosphorylation of a fluorescein-labelled substrate peptide is measured using terbium-labeled phosphospecific antibodies. Kinase inhibition assays (10 μL) were performed at 20° C. in 384-well plate format. […]
pIC50: −log10 of the molar value.
observed-property: pIC50

## Input Output pIC50 of N#Cc1cc(-c2nc(Nc3ccnc(NC(=O)CN4CCOCC4)c3)ncc2F)cnc1N1CCCOCC1 [DMX-94]
## Output > 7.00

## Input Output pIC50 of N#Cc1cc(-c2ccnc(Nc3ccc(CN4CCCOCC4)nc3)n2)cnc1N1CC[C@H](F)C1 [DMX-103]
## Output > 7.00

## Input Output pIC50 of Cc1nccn1CC(=O)Nc1ccc(Nc2nccc(-c3cnc(N4CC[C@H](F)C4)c(C#N)c3)n2)cn1 [DMX-128]
## Output > 7.52

## Input Output pIC50 of N#Cc1cc(-c2ccnc(Nc3cccc(C(N)=O)c3)n2)cnc1N1CCCC1 [DMX-2]
## Output > 7.52

====

- tgt: TBK1 (Homo sapiens (Human), UniProt Q9UHD2)
- Sequence (Q9UHD2 whole entry): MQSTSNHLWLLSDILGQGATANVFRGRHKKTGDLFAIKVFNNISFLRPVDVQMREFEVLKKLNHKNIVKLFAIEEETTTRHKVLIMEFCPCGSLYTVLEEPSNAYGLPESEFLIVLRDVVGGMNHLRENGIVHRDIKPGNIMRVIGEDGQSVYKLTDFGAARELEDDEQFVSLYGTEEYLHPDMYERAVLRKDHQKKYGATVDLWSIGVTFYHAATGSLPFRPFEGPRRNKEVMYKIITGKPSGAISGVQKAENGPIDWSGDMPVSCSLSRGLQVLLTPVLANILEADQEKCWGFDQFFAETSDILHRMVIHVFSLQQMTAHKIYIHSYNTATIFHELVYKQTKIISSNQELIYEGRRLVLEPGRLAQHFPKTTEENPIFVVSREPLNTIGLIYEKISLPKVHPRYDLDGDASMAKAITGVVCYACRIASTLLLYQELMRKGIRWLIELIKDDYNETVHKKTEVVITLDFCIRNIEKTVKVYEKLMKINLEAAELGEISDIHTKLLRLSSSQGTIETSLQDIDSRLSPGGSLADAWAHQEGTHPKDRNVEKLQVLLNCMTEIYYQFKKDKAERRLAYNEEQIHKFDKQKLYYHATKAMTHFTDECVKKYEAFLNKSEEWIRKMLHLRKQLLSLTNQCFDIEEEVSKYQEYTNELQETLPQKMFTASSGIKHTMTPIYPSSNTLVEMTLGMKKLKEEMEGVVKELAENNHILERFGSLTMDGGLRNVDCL
- procedure-details: Lanthascreen TR-FRET kinase inhibition assay, TBK1
- Type: biochemical
- reported-conditions: 20 μM ATP (apparent Km), 8 nM kinase, 2.5 h
Exercise: for every item that follows, state its recorded IC50.

## Input Output IC50 of N#Cc1cc(-c2ccnc(Nc3ccc(NC(=O)CN4CCOCC4)nc3)n2)cnc1N1CCCOCC1 [DMX-85]
## Output < 100 nM

## Input Output IC50 of CC(C(=O)Nc1ccc(Nc2nccc(-c3cnc(N4CC[C@H](F)C4)c(C#N)c3)n2)cn1)N1CCOCC1 (some centres unmarked) [DMX-32]
## Output < 30 nM

## Input Output IC50 of N#Cc1nc(-c2ccnc(Nc3ccc(N4CCOCC4)cc3)n2)ccc1N1CC[C@H](O)C1 [DMX-57]
## Output < 15 nM

## Input Output IC50 of N#Cc1cc(-c2ccnc(Nc3ccnc(N4CCOCC4)c3)n2)cnc1N1CC[C@H](O)C1 [DMX-71]
## Output < 30 nM

## Input Output IC50 of N#Cc1cc(-c2ccnc(Nc3cnn(CCO)c3)n2)cnc1N1C2CCC1COC2 [DMX-46]
## Output < 100 nM

## Input Output IC50 of N#Cc1cc(-c2ccnc(Nc3cncc(NC(=O)CN4CCOCC4)c3)n2)cnc1N1CC[C@H](F)C1 [DMX-108]
## Output < 30 nM

## Input Output IC50 of CN1CCC(Nc2ccc(Nc3nccc(-c4cnc(N5CC[C@H](O)C5)c(C#N)c4)n3)cn2)CC1 [DMX-13]
## Output < 100 nM

## Input Output IC50 of COCCN(C)c1ccc(-c2ccnc(Nc3cnn(C)c3)n2)nc1C#N [DMX-155]
## Output < 1000 nM

## Input Output IC50 of N#Cc1cc(-c2ccnc(Nc3ccc(CN4CCOCC4)cc3)n2)cnc1N1CC[C@H](F)C1 [DMX-30]
## Output < 15 nM

## Input Output IC50 of N#Cc1cc(-c2ccnc(Nc3ccc(NC(=O)CN4CC[C@H](O)C4)nc3)n2)cnc1N1CC[C@H](F)C1 [DMX-35]
## Output < 100 nM

## Input Output IC50 of Cn1cc(NC(=O)[C@H]2CCCN2c2ncc(-c3ccnc(Nc4cnn(C)c4)n3)cc2C#N)cn1 [DMX-41]
## Output < 100 nM
